Sourced from patent US12612412B2

# Tested on: HMPV clinical isolate TN/1501/A1
# Assay name: HMPV antiviral assay Method-B (clinical isolate TN/1501/A1 in LLC-MK2 cells, ATP-Lite readout)
# Format: cell-based, Human metapneumovirus (HMPV)
# Settings: human metapneumovirus, LLC-MK2, 144 h, hMPV WT1501 (clinical isolate TN/1501/A1), 6 days
Here, each record is paired with measured EC50 data.

Answered examples (5):
> print(dat)
                                   compound   reading
1  C[C@]1(C(N)=O)COc2c1cc([C@@](O)(CNC(=O)c1cc(Cl)c3nn(C4CC4)cc3c1)C1CC1)nc2-c1cc(Cl)c(F)c(Cl)c1 [Example 680]  > 500 nM
2  COc1cc(C(=O)NC[C@](O)(c2cc3c(c(-c4ccc(F)c(F)c4Cl)n2)OC[C@]3(C)C(N)=O)C2CC2)cc2cn(C3(F)CC3)nc12 [Example 562]  < 500 nM
3  COc1cc(C(=O)NC[C@](O)(c2cc3c(c(-c4ccc(F)cc4Cl)n2)OC[C@]3(C)C(N)=O)C(F)(F)F)cc2cc(C(F)(F)F)cnc12 [Example 516]  > 500 nM
4  C[C@]1(C(N)=O)COc2c1cc([C@@](O)(CNC(=O)c1cc(Cl)c3nn(C4CC4)cc3c1)C1(F)CC1)nc2-c1ccc(F)c(F)c1F [Example 757]  < 500 nM
5  COc1cc(C(=O)NC[C@](O)(c2cc3c(c(-c4ccc(F)c(Cl)c4)n2)OC[C@@]3(C(N)=O)C(F)F)C2CC2)cc2cn(C(F)F)nc12 [Example 1045]  < 500 nM

Attention now turns to another entry.
Asked: Please give the measured EC50 for this compound: COc1cc(C(=O)NC[C@](O)(c2cc3c(c(-c4ccc5c(c4)C(F)(F)C(=O)N5)n2)OC[C@]3(C)C(N)=O)C(F)(F)F)cc2cn(C3CC3)nc12 [Example 995]
Given back: > 500 nM
